As shown below, each of these compounds has a reported Inhibition value.
- Tested on: Cryptococcus neoformans
- condition-description: Concentration 20 uM; ASSAY_TEST Inhibition of Fungal Growth; detection method Resazurin; Absorption (OD600-OD570); plate type 384well; NBS; CORNING #3640
- Description: Antifungal activity against Cryptococcus neoformans H99 ATCC 208821 (CO-ADD:FG_002); MIC in YNB media using NBS plates, by Resazurin OD(600-570)
Potency and affinity values are given separately.

compound | assay-target | Inhibition
O=C(/C=C/c1ccccc1Cl)c1ccc(O)cc1 | Cryptococcus neoformans | 8.89%
O=C(/C=C/C(=O)N1CCc2ccccc2C1)N1CCc2ccccc2C1 | Cryptococcus neoformans | -10.59%
Nc1nnc(S)n1-c1ccc(Cl)cc1 | Cryptococcus neoformans | -11.28%
Cn1cnc([N+](=O)[O-])c1Sc1nnc(-c2cccnc2)n1C | Cryptococcus neoformans | -6.62%
N#CC1=C(Nc2ccccc2Cl)SC(c2ccncc2)NC1=O (centres undefined) | Cryptococcus neoformans | -0.15%
CCOC(=O)C(=O)C1C(=O)Nc2ccccc21 (centres undefined) | Cryptococcus neoformans | -6.08%
O=C(c1cccnc1)c1cc(-c2ccccn2)c(=O)n2ccccc12 | Cryptococcus neoformans | -7.13%
COc1ccc2c(c1)CCCN2C(=N)Nc1ccc(Cl)cc1 | Cryptococcus neoformans | 6.87%
CCOC(=O)Cc1cc(=O)[nH]n(-c2ccccc2)c1=O | Cryptococcus neoformans | -10.57%
FC(F)(F)c1nc2nc(Cl)c(Cl)nc2n1CCCN1CCOCC1 | Cryptococcus neoformans | 38.81%
Cc1ccn2c(C(C)O)nnc2c1 (centres undefined) | Cryptococcus neoformans | -15.94%
CC(C)(C)C(=O)Nc1ccc(NC(=O)C(C)(C)C)cc1 | Cryptococcus neoformans | 1.66%
CN(C)S(=O)(=O)N1C(=O)c2ccccc2C1=O | Cryptococcus neoformans | -1.33%
NS(=O)(=O)c1ccc(NC2(C(=O)O)CCCC2)cc1 | Cryptococcus neoformans | 18.42%
Nc1ccc(NC(=O)c2ccc(C(=O)Nc3ccc(N)cc3)cc2)cc1 | Cryptococcus neoformans | 10.38%
O=C(O)CCNC1CCCCC1 | Cryptococcus neoformans | -1.65%
COc1cc2c(cc1OC)[N+]([O-])=C(c1ccccc1)C2=O | Cryptococcus neoformans | -4.84%
Cn1ncc2c(Nc3ccc(O)cc3)nc(Cl)nc21 | Cryptococcus neoformans | -12.05%
N#Cc1ccc(NC2c3ccccc3CC2O)cc1 (centres undefined) | Cryptococcus neoformans | 8.31%
O=C(c1cccnc1)N1CCN(c2ccccc2Cl)CC1 | Cryptococcus neoformans | -13.57%
CCN(CC)CCNC(=O)c1ccc(NCN2C(=O)NC(c3ccccc3)(c3ccccc3)C2=O)cc1 | Cryptococcus neoformans | -3.88%
NC(=O)NC(=O)c1nccnc1C(=O)O | Cryptococcus neoformans | -7.91%
Nc1ccc(C(=O)Nc2ccc(Nc3ccncc3)cc2)cc1 | Cryptococcus neoformans | -0.31%
C/C(=N\O)[C@H]1CC[C@H]2[C@@H]3CC[C@@H]4C/C(=N/O)CC[C@]4(C)[C@H]3[C@@](C)(O)C[C@]12C | Cryptococcus neoformans | -11.49%
